# tgt: Receptor-type tyrosine-protein kinase FLT3 (Homo sapiens, UniProt P36888)
# Sequence (P36888 whole entry): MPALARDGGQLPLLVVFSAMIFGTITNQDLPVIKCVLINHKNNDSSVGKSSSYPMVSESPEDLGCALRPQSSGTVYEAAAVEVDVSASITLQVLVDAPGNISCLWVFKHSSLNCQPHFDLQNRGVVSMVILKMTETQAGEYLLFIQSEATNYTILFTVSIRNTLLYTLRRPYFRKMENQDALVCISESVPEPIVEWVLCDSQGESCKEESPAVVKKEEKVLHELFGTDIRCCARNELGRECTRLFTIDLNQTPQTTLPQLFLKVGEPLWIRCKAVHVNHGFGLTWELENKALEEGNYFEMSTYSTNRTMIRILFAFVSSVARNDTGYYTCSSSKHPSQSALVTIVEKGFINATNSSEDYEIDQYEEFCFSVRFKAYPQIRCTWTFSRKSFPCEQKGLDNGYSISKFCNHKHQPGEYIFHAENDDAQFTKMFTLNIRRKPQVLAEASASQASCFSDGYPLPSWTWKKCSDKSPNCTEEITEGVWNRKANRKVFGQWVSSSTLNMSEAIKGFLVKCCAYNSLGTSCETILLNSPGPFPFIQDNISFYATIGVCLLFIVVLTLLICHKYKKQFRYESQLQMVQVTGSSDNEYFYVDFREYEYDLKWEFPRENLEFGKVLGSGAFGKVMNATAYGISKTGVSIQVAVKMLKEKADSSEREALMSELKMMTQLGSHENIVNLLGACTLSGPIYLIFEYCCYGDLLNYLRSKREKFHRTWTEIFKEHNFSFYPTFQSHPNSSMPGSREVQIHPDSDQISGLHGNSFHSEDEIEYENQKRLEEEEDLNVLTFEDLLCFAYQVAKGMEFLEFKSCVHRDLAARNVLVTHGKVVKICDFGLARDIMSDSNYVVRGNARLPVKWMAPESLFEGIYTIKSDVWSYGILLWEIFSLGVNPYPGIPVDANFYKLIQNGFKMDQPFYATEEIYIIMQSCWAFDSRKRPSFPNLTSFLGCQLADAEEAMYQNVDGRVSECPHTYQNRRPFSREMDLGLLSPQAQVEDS
# method: Inhibition of recombinant FLT3 by time resolved-fluorescence resonance energy transfer analysis
measurement_name: IC50 (nM)
Write the number in nM without appending the unit.

Known IC50 results, listed for orientation:
Nc1ncc(-c2cnn(C3CCNCC3)c2)cc1-c1nc2ccc(O)c(-c3ccccc3)c2o1 ... 14
Cc1c(O)ccc2nc(-c3cc(-c4cnn(C5CCNCC5)c4)cnc3N)oc12 ... 34
Nc1ccc2nc(-c3cc(-c4cnn(C5CCNCC5)c4)cnc3N)oc2c1 ... 3.6

Prompt line: # get_value(readout='IC50', item= Nc1ncc(-c2cnn(C3CCNCC3)c2)cc1-c1nc2ccc(O)cc2o1 )
Response line: 4
